# System: L1210 leukemia ip in BDF1 mice, survival T/C
# run-description: NCI In Vivo Anticancer Drug Screen. Data for tumor model L1210 Leukemia (intraperitoneal) in B6D2F1 (BDF1) mice
# assay-setup: endpoint: mean survival time; dose: 200.0 mg/kg/injection; schedule: Q01DX001 (ip); vehicle: Klucel (hydroxypropylcellulose) (HPC); higher = longer survival
Inconclusive results and toxic doses are left out.
measure-name: T/C

For orientation, consider the following solved cases.
- molecule: "Cc1cc(C)c(S(=O)(=O)C(=O)/C=N/N)c(C)c1"
  T/C: "100 % of control"
- molecule: "CCOC(=O)c1nnc(CC)[nH]c1=O"
  T/C: "111 % of control"
- molecule: "O=C(Nc1ccc(F)cc1)OCCc1ccccn1"
  T/C: "101 % of control"
- molecule: "Cc1ccc(S(=O)(=O)OC2CCC(C(C)(C)C)C(Cl)C2)cc1 (stereo not given)"
  T/C: "87 % of control"
- molecule: "CC(C)C(C)/C=C/C(C)C1CCC2C3CC=C4CC(O)CCC4(C)C3CCC12C (stereo not given)"
  T/C: "101 % of control"
- molecule: "CC1(C)CCCC2(C)C3CCC(C31)C2OC(=O)c1ccc([N+](=O)[O-])cc1 (stereo not given)"
  T/C: "98 % of control"
- molecule: "COc1ccccc1OC1CCCCC1OS(C)(=O)=O (stereo not given)"
  T/C: "105 % of control"
- molecule: "NC(=O)CNc1ccccc1C(=O)O"
  T/C: "96 % of control"
- molecule: "c1ccc2cc(C3SCCS3)ccc2c1"
  T/C: "97 % of control"

Proceeding to the next molecule to report its T/C.
Lab note: O=C(Nc1cccc(S(=O)(=O)F)c1)/C(=C/c1ccc([N+](=O)[O-])cc1)c1ccccc1 gave T/C of 99 % of control

Recorded values, source PubChem BioAssay AID248.
